# System Under Test: Endoribonuclease toxin MazF (Escherichia coli K-12)
# Sequence (P0AE70 whole entry): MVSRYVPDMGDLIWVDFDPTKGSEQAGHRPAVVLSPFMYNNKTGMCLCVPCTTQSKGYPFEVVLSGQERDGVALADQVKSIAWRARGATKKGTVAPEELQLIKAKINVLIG
# Experimental Protocol: fluorescent RNA oligo signal without MazF, dose response, counter-screen for MazEF activator project, biochemical, fluorescence, single-stranded RNase substrate (AID 588502)
# Format: functional
The source made the active and inactive calls. Bridge positions count the residues as written; N and C are the ends. Square brackets hold non-standard residues; d marks the D form. Peptide text beside a SMILES is read from it. * marks the point of attachment. X1 = CCC(C)C(N)C1=NC(C(=O)*)CS1; dOrn = NCCC[C@@H](N)C(=O)O
Your response should consist of one outcome taken from 1 (yes) for active, 0 (no) for inactive

(Q) Called result for O=c1[nH]nc(CNc2ccc(O)cc2)c2ccccc12
(A) 0 (no)

(Q) Record request — test call for CCC(C)C(N)C1=NC(C(=O)N[C@@H](CC(C)C)C(=O)N[C@H](CCC(=O)O)C(=O)N[C@H](C(=O)N[C@H]2CCCCNC(=O)[C@H](CC(N)=O)NC(=O)[C@@H](CC(=O)O)NC(=O)[C@H](Cc3c[nH]cn3)NC(=O)[C@@H](Cc3ccccc3)NC(=O)[C@H]([C@@H](C)CC)NC(=O)[C@@H](CCCN)NC2=O)[C@@H](C)CC)CS1 (some centres undefined) (X1-L[dE]IK[dOrn]I[dF]H[dD]N; lactam 4-C)
(A) 1 (yes)

(Q) For O=C(N=CNOCc1ccc(Cl)cc1Cl)NOCc1c(Cl)cccc1Cl , which call appears in the assay record?
(A) 0 (no)

// next entry
(Q) State the result this test recorded for CCOc1ccc(/N=C/C=C(/O)c2ccc(OC)cc2)c([N+](=O)[O-])c1 .
(A) 1 (yes)

----------
# System Under Test: Protein skinhead-1 (Caenorhabditis elegans, UniProt P34707)
# Sequence (P34707 whole entry): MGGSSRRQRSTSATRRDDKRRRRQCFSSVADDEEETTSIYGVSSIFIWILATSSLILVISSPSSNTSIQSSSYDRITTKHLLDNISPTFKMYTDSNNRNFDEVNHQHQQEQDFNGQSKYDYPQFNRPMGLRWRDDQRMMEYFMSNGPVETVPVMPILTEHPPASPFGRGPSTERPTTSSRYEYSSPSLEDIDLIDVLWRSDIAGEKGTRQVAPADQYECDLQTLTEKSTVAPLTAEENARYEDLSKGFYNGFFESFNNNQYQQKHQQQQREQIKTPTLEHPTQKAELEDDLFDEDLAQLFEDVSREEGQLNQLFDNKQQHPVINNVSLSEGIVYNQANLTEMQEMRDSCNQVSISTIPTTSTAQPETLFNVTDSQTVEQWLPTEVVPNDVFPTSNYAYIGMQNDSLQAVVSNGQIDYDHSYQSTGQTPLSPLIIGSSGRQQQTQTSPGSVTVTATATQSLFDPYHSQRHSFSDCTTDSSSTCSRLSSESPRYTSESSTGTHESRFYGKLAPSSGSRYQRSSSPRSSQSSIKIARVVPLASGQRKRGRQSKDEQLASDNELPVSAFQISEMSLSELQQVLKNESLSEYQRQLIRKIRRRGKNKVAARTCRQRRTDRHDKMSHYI
# Type: functional
Active and inactive are the calls of the source.
Parameter call: string, one of label 1 for active, label 0 for inactive

Field: example entries. Status: answers known.
(Q) Which result was noted for this compound in the test: CCOC(=O)C1(C)C(N=Nc2ccc(Cl)cc2)=C(O)C(=O)N1c1ccccc1 (configuration not stated)
(A) label 0

(Q) State the result this test recorded for Brc1ccc(-c2nc(-c3ccccn3)no2)o1 .
(A) label 0

(Q) Could you kindly confirm the outcome this assay logged for O=C(NCCOc1ccc(Cl)cc1)c1ccc2ccccc2n1 ?
(A) label 0

(Q) Can you look up the reported call for CN1CCc2c(sc3c2C(=O)NC(c2ccccc2)N3)C1 (configuration not stated) for me?
(A) label 0

(Q) // outcome(item) with item = O=C(Nc1ccccc1Oc1ccccc1)c1cccs1
(A) label 0

(Q) For this compound, state the assay outcome: CCCn1c(N)c(C(c2ccc(OC)cc2)N2CCN(c3ccccc3)CC2)c(=O)[nH]c1=O (configuration not stated)
(A) label 0

Further cases:
(Q) Kindly provide the recorded test outcome for the following compound: O=C(Sc1ccc(Cl)cc1)c1ccccn1
(A) label 1

----------
Consider the following compounds and their measured EC50 readings.
# System Under Test: Luciferin 4-monooxygenase (Photinus pyralis, UniProt P08659)
# Sequence (P08659 whole entry): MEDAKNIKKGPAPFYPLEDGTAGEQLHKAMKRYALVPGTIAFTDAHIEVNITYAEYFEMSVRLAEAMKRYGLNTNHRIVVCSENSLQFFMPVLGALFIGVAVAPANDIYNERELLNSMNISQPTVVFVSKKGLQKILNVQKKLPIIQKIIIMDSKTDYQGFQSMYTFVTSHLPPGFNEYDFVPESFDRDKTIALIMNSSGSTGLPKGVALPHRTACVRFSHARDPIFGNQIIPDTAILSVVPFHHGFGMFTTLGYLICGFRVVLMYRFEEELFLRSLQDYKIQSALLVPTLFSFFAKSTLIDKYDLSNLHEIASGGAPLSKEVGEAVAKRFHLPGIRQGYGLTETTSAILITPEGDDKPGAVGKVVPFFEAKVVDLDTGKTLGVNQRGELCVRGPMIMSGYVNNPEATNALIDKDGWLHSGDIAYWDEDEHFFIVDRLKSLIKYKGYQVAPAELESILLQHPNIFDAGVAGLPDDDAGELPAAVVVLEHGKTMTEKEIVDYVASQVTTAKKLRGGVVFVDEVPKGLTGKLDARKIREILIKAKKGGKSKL
# Experimental Protocol: Counter Screen for Luciferase-based Assay Positives. [Related pubchem assays: 620, 618, 411 ]
The source made the active and inactive calls.

// recorded EC50 for CC(C)C(=O)Nc1ccc(-c2nc3cccnc3o2)cc1 : < 200 nM (active)

Just so you know, measured EC50 for CC(C)(C)c1ccc(C(=O)N2CCCCCC2=O)cc1 came out at 1500 nM (active)

GET /value?item= Brc1ccc(-c2nc(-c3ccccn3)no2)o1 &field=EC50 returns 2580 nM (active)

Field EC50 (entry CCc1ccc(-c2cc(C(=O)Nn3cnnc3)c3ccccc3n2)cc1 ) reads 2730 nM (active)

Reported EC50 for Cc1ccoc1C(=O)Nc1ccc(CC(=O)O)cc1 was 1120 nM (active)
